Target: T1, native Ovr110 protein on tumor cells (ZR-75-1, SKBR3, RL95.2, OVCAR3) (human, UniProt Q7Z7D3 25-282)
T1 construct: whole, on cells; Endogenous protein of Ovr110-positive tumor cell lines; also called B7-H4; B7x
T1 sequence (looked up): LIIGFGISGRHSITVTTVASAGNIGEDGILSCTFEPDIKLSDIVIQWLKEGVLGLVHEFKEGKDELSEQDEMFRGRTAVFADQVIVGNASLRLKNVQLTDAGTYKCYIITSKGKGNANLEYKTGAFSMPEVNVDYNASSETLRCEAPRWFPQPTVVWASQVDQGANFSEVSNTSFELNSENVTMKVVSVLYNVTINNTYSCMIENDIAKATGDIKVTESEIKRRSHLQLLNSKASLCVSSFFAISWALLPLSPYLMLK
Assay: flow cytometry; purified MAb; SKBR3 cells
Recorded MFI values for a group of binders are listed next.

binder | MFI
Ovr110.Q11 (antibody, V domains shown, Mouse hybridoma MAb; also called Q11.12.3; Ovr110.Q11.12.3) VH: DVQLQESGPGLVKPSQSLSLTCSVTGYSITSGYFWSWIRQFPGNKLEWMGFISYDGTNSYNPSLKNRISITRDTSKNQFFLRLNSVTKEDTATYYCARKLLWLRFDYWGQGTTLTVSS VL: ENVLTQSPAIMSASPGEKVTMTCSASSSVSYMHWYQQKSSTSPKLWIYDTSKLASGVPGRFSGSGSGNSYSLTISSMEAEDVATYYCFQGSGYPFTFGSGTKLEIKR | 5.95
Ovr110.Q23 (antibody, IgG1, V domains shown, Mouse hybridoma MAb; also called Q23.6) VH: QVQLQQSGAELMKPGASVKISCKATGYTFSSYWIEWVKQRPGHGLEWIGEILPGSGITKYNEKFKTKATFTADTSSNTAYMQLSSLTSEDSAVYYCARYYFGSVNFYFDCWGQGTTLTVSS VL: QAVVTQESALTTSPGETVTLTCRSSTGAVTTSNYANWVQEKPDHLFTGLIGGTDNRPPGVPARFSGSLIGDKAALTITGTQTEDEAIYFCALWYSNHWVFGGGTKLTVLG | 3.85
Ovr110.Q12 (antibody, IgG1, V domains shown, Mouse hybridoma MAb; also called Q12.2; Ovr110.Q12.2) VH: QVQLQQPGAELVKPGATVKLSCKTSGYTFTSYWMHWVKQRPGQGLEWIGEIDPSDSYTNYNQKFKGKATLTVDTSSTTAYMQLSSLTSEDSAVYYCAREYGNNDAMDYWGQGTSVTVSS VL: QIVLTQSPAIMSASPGEKVTMTCSASSGISYMHWYQQKPGTTPKRWIYDASKLASGVPSRFSGSGSGTSYSLTISSMEAEDAATYYCHQRRSYPFTFGSGTKLEIKR | 4.86
